Source listed as patent US20070077617.

Biological target: fusion protein PRG
Sequence (chain, as listed by the source): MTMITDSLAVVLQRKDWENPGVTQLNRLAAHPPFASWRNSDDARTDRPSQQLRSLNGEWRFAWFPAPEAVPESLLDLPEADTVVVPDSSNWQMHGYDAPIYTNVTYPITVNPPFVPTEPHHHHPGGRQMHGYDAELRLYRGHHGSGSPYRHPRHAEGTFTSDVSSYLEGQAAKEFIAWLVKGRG
measuredEndpoint: relative cleavage efficiency

>  <protein>
OmpT protease variant OmpT D97Q (protein) STETLSFTPDNINADISLGTLSGKTKERVYLAEEGGRKVSQLDWKFNNAAIIKGAINWDLMPQISIGAAGWTTLGSRGGNMVDQDWMDSSNPGTWTQESRHPDTQLNYANEFDLNIKGWLLNEPNYRLGLMAGYQESRYSFTARGGSYIYSSEEGFRDDIGSFPNGERAIGYKQRFKMPYIGLTGSYRYEDFELGGTFKYSGWVESSDNDEHYDPGKRITYRSKVKDQNYYSVAVNAGYYVTPNAKVYVEGAWNRVTNKKGNTSLYDHNNNTSDYSKNGAGIENYNFITTAGLKYTF

>  <valueReported>
less than 3%

$$$$
>  <protein>
OmpT protease variant OmpT D97N (protein) STETLSFTPDNINADISLGTLSGKTKERVYLAEEGGRKVSQLDWKFNNAAIIKGAINWDLMPQISIGAAGWTTLGSRGGNMVDQDWMDSSNPGTWTNESRHPDTQLNYANEFDLNIKGWLLNEPNYRLGLMAGYQESRYSFTARGGSYIYSSEEGFRDDIGSFPNGERAIGYKQRFKMPYIGLTGSYRYEDFELGGTFKYSGWVESSDNDEHYDPGKRITYRSKVKDQNYYSVAVNAGYYVTPNAKVYVEGAWNRVTNKKGNTSLYDHNNNTSDYSKNGAGIENYNFITTAGLKYTF

>  <valueReported>
less than 3%

$$$$
>  <protein>
OmpT protease variant OmpT D97H (protein) STETLSFTPDNINADISLGTLSGKTKERVYLAEEGGRKVSQLDWKFNNAAIIKGAINWDLMPQISIGAAGWTTLGSRGGNMVDQDWMDSSNPGTWTHESRHPDTQLNYANEFDLNIKGWLLNEPNYRLGLMAGYQESRYSFTARGGSYIYSSEEGFRDDIGSFPNGERAIGYKQRFKMPYIGLTGSYRYEDFELGGTFKYSGWVESSDNDEHYDPGKRITYRSKVKDQNYYSVAVNAGYYVTPNAKVYVEGAWNRVTNKKGNTSLYDHNNNTSDYSKNGAGIENYNFITTAGLKYTF

>  <valueReported>
less than 3%

$$$$
>  <protein>
OmpT protease variant OmpT D97A (protein) STETLSFTPDNINADISLGTLSGKTKERVYLAEEGGRKVSQLDWKFNNAAIIKGAINWDLMPQISIGAAGWTTLGSRGGNMVDQDWMDSSNPGTWTAESRHPDTQLNYANEFDLNIKGWLLNEPNYRLGLMAGYQESRYSFTARGGSYIYSSEEGFRDDIGSFPNGERAIGYKQRFKMPYIGLTGSYRYEDFELGGTFKYSGWVESSDNDEHYDPGKRITYRSKVKDQNYYSVAVNAGYYVTPNAKVYVEGAWNRVTNKKGNTSLYDHNNNTSDYSKNGAGIENYNFITTAGLKYTF

>  <valueReported>
less than 3%

$$$$
>  <protein>
OmpT protease variant OmpT D97Y (protein) STETLSFTPDNINADISLGTLSGKTKERVYLAEEGGRKVSQLDWKFNNAAIIKGAINWDLMPQISIGAAGWTTLGSRGGNMVDQDWMDSSNPGTWTYESRHPDTQLNYANEFDLNIKGWLLNEPNYRLGLMAGYQESRYSFTARGGSYIYSSEEGFRDDIGSFPNGERAIGYKQRFKMPYIGLTGSYRYEDFELGGTFKYSGWVESSDNDEHYDPGKRITYRSKVKDQNYYSVAVNAGYYVTPNAKVYVEGAWNRVTNKKGNTSLYDHNNNTSDYSKNGAGIENYNFITTAGLKYTF

>  <valueReported>
less than 3.0%

$$$$
>  <protein>
OmpT protease variant OmpT D97R (protein) STETLSFTPDNINADISLGTLSGKTKERVYLAEEGGRKVSQLDWKFNNAAIIKGAINWDLMPQISIGAAGWTTLGSRGGNMVDQDWMDSSNPGTWTRESRHPDTQLNYANEFDLNIKGWLLNEPNYRLGLMAGYQESRYSFTARGGSYIYSSEEGFRDDIGSFPNGERAIGYKQRFKMPYIGLTGSYRYEDFELGGTFKYSGWVESSDNDEHYDPGKRITYRSKVKDQNYYSVAVNAGYYVTPNAKVYVEGAWNRVTNKKGNTSLYDHNNNTSDYSKNGAGIENYNFITTAGLKYTF

>  <valueReported>
less than 3.0%

$$$$
>  <protein>
OmpT protease variant OmpT D97S (protein) STETLSFTPDNINADISLGTLSGKTKERVYLAEEGGRKVSQLDWKFNNAAIIKGAINWDLMPQISIGAAGWTTLGSRGGNMVDQDWMDSSNPGTWTSESRHPDTQLNYANEFDLNIKGWLLNEPNYRLGLMAGYQESRYSFTARGGSYIYSSEEGFRDDIGSFPNGERAIGYKQRFKMPYIGLTGSYRYEDFELGGTFKYSGWVESSDNDEHYDPGKRITYRSKVKDQNYYSVAVNAGYYVTPNAKVYVEGAWNRVTNKKGNTSLYDHNNNTSDYSKNGAGIENYNFITTAGLKYTF

>  <valueReported>
less than 3%

$$$$
>  <protein>
OmpT protease variant OmpT D97W (protein) STETLSFTPDNINADISLGTLSGKTKERVYLAEEGGRKVSQLDWKFNNAAIIKGAINWDLMPQISIGAAGWTTLGSRGGNMVDQDWMDSSNPGTWTWESRHPDTQLNYANEFDLNIKGWLLNEPNYRLGLMAGYQESRYSFTARGGSYIYSSEEGFRDDIGSFPNGERAIGYKQRFKMPYIGLTGSYRYEDFELGGTFKYSGWVESSDNDEHYDPGKRITYRSKVKDQNYYSVAVNAGYYVTPNAKVYVEGAWNRVTNKKGNTSLYDHNNNTSDYSKNGAGIENYNFITTAGLKYTF

>  <valueReported>
less than 3.0%

$$$$
